- TESTED TARGET: human TYK2 (JH2domain-pseudokinase) (Homo sapiens (Human), UniProt P29597)
- Sequence (P29597 556-888): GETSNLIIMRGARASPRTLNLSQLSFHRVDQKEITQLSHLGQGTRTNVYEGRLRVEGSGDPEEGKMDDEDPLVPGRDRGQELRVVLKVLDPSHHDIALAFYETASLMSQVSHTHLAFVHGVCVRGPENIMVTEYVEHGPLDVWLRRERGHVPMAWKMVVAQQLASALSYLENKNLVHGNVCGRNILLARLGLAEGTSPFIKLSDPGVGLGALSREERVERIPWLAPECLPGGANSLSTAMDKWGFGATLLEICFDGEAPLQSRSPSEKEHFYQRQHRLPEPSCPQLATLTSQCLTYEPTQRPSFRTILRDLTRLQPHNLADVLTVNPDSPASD
- PROCEDURE SUMMARY: TYK2 JH2 Domain Binding Assay (KINOMEscan, DiscoveRx)
- STUDY CONDITIONS: 11-point dilution, duplicate
Hi there, I'd appreciate the recorded Kd for every entry that follows.

Completed entries (count: 7):
For the molecule CS(=O)(=O)c1cc(Cl)ccc1Nc1cc(NC(=O)C2CC2)nc2[nH]c(C(F)F)nc12 , give its reported Kd.
0.5 to 1 nM

For the molecule Cc1nc(-c2ccc(Nc3cc(NC(=O)C4CC4)nc4[nH]c(C(F)F)nc34)c(S(C)(=O)=O)c2)cs1 , give its reported Kd.
0.1 to 0.5 nM

For the molecule Cc1nc2c(Nc3ccc(-c4ccn(C)n4)cc3S(C)(=O)=O)cc(NC(=O)[C@@H]3CC3(F)F)nc2[nH]1 , give its reported Kd.
0.1 to 0.5 nM

For the molecule CS(=O)(=O)c1cc(C2CCOCC2)ccc1Nc1cc(NC(=O)[C@@H]2CC2(F)F)nc2[nH]c(C(F)F)nc12 , give its reported Kd.
1 to 10 nM

For the molecule CS(=O)(=O)c1cc(Cl)ccc1Nc1cc(Nc2cccc(C#N)n2)nc2[nH]c(C(F)F)nc12 , give its reported Kd.
0.5 to 1 nM

For the molecule Cc1nc2c(Nc3ccc(C4CC4)cc3S(C)(=O)=O)cc(NC(=O)C3CC3)nc2[nH]1 , give its reported Kd.
0.1 to 0.5 nM

For the molecule COCc1ccc(Nc2cc(Nc3ccc(F)cc3S(C)(=O)=O)c3nc(C)[nH]c3n2)nn1 , give its reported Kd.
0.1 to 0.5 nM

We now examine a further molecule.
For the molecule COc1c(Nc2cc(NC(=O)C3CC3)nc3[nH]c(C)nc23)cccc1-c1nnn(C)n1 , give its reported Kd.
0.5 to 1 nM

* * *

- TESTED TARGET: human TYK2 (JH2domain-pseudokinase) (Homo sapiens (Human))
- PROCEDURE SUMMARY: TYK2 JH2 Domain Binding Assay (KINOMEscan, DiscoveRx)
- STUDY CONDITIONS: 11-point dilution, duplicate
pKd: −log10 of the molar value.
Hi there, I'd appreciate the recorded pKd for every entry that follows.

Identify measured pKd obtained with human TYK2 (JH2domain-pseudokinase) (Homo sapiens (Human)) for Cc1nc2c(Nc3ccc(-c4c(C)nn(C)c4C)cc3S(C)(=O)=O)cc(Nc3cccc(C#N)n3)nc2[nH]1 .
9.30 to 10.00

Identify measured pKd obtained with human TYK2 (JH2domain-pseudokinase) (Homo sapiens (Human)) for Cc1nc2c(Nc3ccc(C4CCC4)cc3S(C)(=O)=O)cc(NC(=O)C3CC3)nc2[nH]1 .
9.00 to 9.30

Identify measured pKd obtained with human TYK2 (JH2domain-pseudokinase) (Homo sapiens (Human)) for CS(=O)(=O)c1cc(C2CCOCC2)ccc1Nc1cc(NC(=O)C2CC2)nc2[nH]c(C(F)F)nc12 .
9.30 to 10.00

More entries:
Identify measured pKd obtained with human TYK2 (JH2domain-pseudokinase) (Homo sapiens (Human)) for COc1c(Nc2cc(NC(=O)C3CC3)nc3[nH]cnc23)cccc1-c1ncn(C)n1 .
9.30 to 10.00

* * *

- TESTED TARGET: human TYK2 (JH2domain-pseudokinase) (Homo sapiens (Human))
- PROCEDURE SUMMARY: TYK2 JH2 Domain Binding Assay (KINOMEscan, DiscoveRx)
- STUDY CONDITIONS: 11-point dilution, duplicate
pKd: −log10 of the molar value.
RESULT TYPE: pKd

Completed entries (count: 5):
For the compound COc1c(Nc2cc(Nc3ccc(N4CCC4)cn3)nc3[nH]c(C(F)F)nc23)cccc1-c1ccn(C)n1 , give its reported pKd.
8.00 to 9.00

For the compound CS(=O)(=O)c1cc(C2CC2)ccc1Nc1cc(NC(=O)C2CC2)nc2[nH]c(C(F)F)nc12 , give its reported pKd.
9.30 to 10.00

For the compound Cc1cc(-c2ccc(Nc3cc(NC(=O)C4CC4)nc4[nH]c(C(F)F)nc34)c(N(C)S(C)(=O)=O)c2)nn1C , give its reported pKd.
9.30 to 10.00

For the compound CC1(C)CC(c2ccc(Nc3cc(NC(=O)C4CC4)nc4[nH]c(C(F)F)nc34)c(S(C)(=O)=O)c2)CC(C)(C)O1 , give its reported pKd.
< 8.00

For the compound Cc1nc2c(Nc3ccc(C4=NCC(C)(C)O4)cc3S(C)(=O)=O)cc(NC(=O)C3CC3)nc2[nH]1 , give its reported pKd.
9.00 to 9.30

# map each compound to its pKd
1. COc1c(F)cccc1Nc1cc(NC(=O)C2CC2)nc2[nH]c(C)nc12
2. Cc1nc2c(Nc3ccc([C@@H]4CCCCO4)cc3S(C)(=O)=O)cc(NC(=O)[C@@H]3CC3(F)F)nc2[nH]1 [I-279]

["< 8.00", "8.00 to 9.00"]

* * *

- TESTED TARGET: human TYK2 (JH2domain-pseudokinase) (Homo sapiens (Human), UniProt P29597)
- PROCEDURE SUMMARY: TYK2 JH2 Domain Binding Assay (KINOMEscan, DiscoveRx)
- STUDY CONDITIONS: 11-point dilution, duplicate
Hi there, I'd appreciate the recorded Kd for every entry that follows.

Completed entries (count: 6):
For the molecule CS(=O)(=O)c1cc(C2CCCOC2)ccc1Nc1cc(NC(=O)C2CC2)nc2[nH]c(C(F)F)nc12 (centres unmarked) , give its reported Kd.
0.1 to 0.5 nM

For the molecule COc1cc(C(=O)N2CCOCC2)ccc1Nc1cc(NC(=O)C2CC2)nc2[nH]c(C(F)F)nc12 , give its reported Kd.
1 to 10 nM

For the molecule CS(=O)(=O)c1cc([C@H]2CCCOC2)ccc1Nc1cc(NC(=O)C2CC2)nc2[nH]c(C(F)F)nc12 , give its reported Kd.
1 to 10 nM

For the molecule Cc1nc2c(Nc3ccc(-c4cnn(C)c4)cc3N(C)S(C)(=O)=O)cc(NC(=O)[C@@H]3C[C@@H]3F)nc2[nH]1 [I-209] , give its reported Kd.
0.1 to 0.5 nM

For the molecule Cc1cc(Nc2cc(Nc3ccc(-c4nc(C)cs4)cc3S(C)(=O)=O)c3nc(C(F)F)[nH]c3n2)nc(C)n1 , give its reported Kd.
0.1 to 0.5 nM

For the molecule COCc1ccc(Nc2cc(Nc3ccccc3S(C)(=O)=O)c3nc(C(F)F)[nH]c3n2)nn1 , give its reported Kd.
0.1 to 0.5 nM

# map each molecule to its Kd
1. COc1c(Nc2cc(Nc3cc(C)c(F)cn3)nc3[nH]cnc23)cccc1-c1ncn(C)n1
2. CS(=O)(=O)c1cc([C@@H]2CCOC2)ccc1Nc1cc(NC(=O)C2CC2)nc2[nH]c(C(F)F)nc12

["0.5 to 1 nM", "0.5 to 1 nM"]

* * *

Hi there, I'd appreciate the recorded pKd for every entry that follows.
- TESTED TARGET: human TYK2 (JH2domain-pseudokinase) (Homo sapiens (Human), UniProt P29597)
- PROCEDURE SUMMARY: TYK2 JH2 Domain Binding Assay (KINOMEscan, DiscoveRx)
- STUDY CONDITIONS: 11-point dilution, duplicate
pKd: −log10 of the molar value.

For the compound COc1c(Nc2cc(NC(=O)C3CC3)nc3[nH]c(C)nc23)cccc1-n1nc(C)nc1C , give its reported pKd.
< 8.00

For the compound Cc1nc2c(Nc3ccc(C4CC4)cc3P(C)(C)=O)cc(NC(=O)C3CC3)nc2[nH]1 , give its reported pKd.
9.30 to 10.00

For the compound Cc1cc(Nc2cc(Nc3ccc(-c4ccn(C5CC5)n4)cc3S(C)(=O)=O)c3nc(C)[nH]c3n2)nc(C)n1 , give its reported pKd.
9.30 to 10.00

For the compound COc1nc2c(Nc3cccc(-c4ncn(C)n4)c3OC)cc(NC(=O)C3CC3)nc2[nH]1 , give its reported pKd.
8.00 to 9.00

For the compound COc1c(Nc2cc(Nc3ccc(NCCCCl)c(C#N)n3)nc3[nH]c(C(F)F)nc23)cccc1-c1nnn(C)n1 , give its reported pKd.
9.00 to 9.30

# map each compound to its pKd
1. Cc1nc2c(Nc3ccc(C4CCCOC4)cc3S(C)(=O)=O)cc(NC(=O)C3CC3)nc2[nH]1 (stereo in doubt) [I-254]
2. CS(=O)(=O)c1cc(F)ccc1Nc1cc(Nc2ccc(OC3CCOCC3)c(C#N)n2)nc2[nH]c(C(F)F)nc12
3. CCS(=O)(=O)N(C)c1ccccc1Nc1cc(Nc2cccc(C#N)n2)nc2[nH]c(C(F)F)nc12
4. Cc1cc(Nc2cc(Nc3ccc(-c4nc(C)c(C)s4)cc3S(C)(=O)=O)c3nc(C)[nH]c3n2)nc(C)n1

1: 9.00 to 9.30; 2: 9.30 to 10.00; 3: < 8.00; 4: 9.30 to 10.00
